tested on: 435261-313-R-J1-PDC tumor spheroid viability; experiment: Anticancer human tumor 435261-313-R-J1-PDC patient-derived colon adenocarcinoma cell line growth inhibition [PI3K]; settings: second compound 0.0316 µM; first compound 0.1 µM; active compounds read low; spheroids with HUVEC and MSC;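 also: spheroids exposed to compounds for 7 days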
Kindly state viability, T/C for each of the entries shown.
Answers are plain numbers, in %.

Recorded viability, T/C, per entry:
| molecule | viability, T/C [%] |
| --- | --- |
| CC(=O)c1c(C)c2cnc(Nc3ccc(N4CCNCC4)cn3)nc2n(C2CCCC2)c1=O + Cc1nc(NC(=O)N2CCCC2C(N)=O)sc1-c1ccnc(C(C)(C)C(F)(F)F)c1 | 59.1 |
| CC1(C)CCC(CN2CCN(c3ccc(C(=O)NS(=O)(=O)c4ccc(NCC5CCOCC5)c([N+](=O)[O-])c4)c(Oc4cnc5[nH]ccc5c4)c3)CC2)=C(c2ccc(Cl)cc2)C1 + CC(Nc1ncnc2nc[nH]c12)c1cc2cccc(Cl)c2c(=O)n1-c1ccccc1 | 92 |
| CC(C)NCC(C(=O)N1CCN(c2ncnc3c2C(C)CC3O)CC1)c1ccc(Cl)cc1 (stereo not given) + CC(Nc1ncnc2nc[nH]c12)c1cc2cccc(Cl)c2c(=O)n1-c1ccccc1 | 102 |
| CCCS(=O)(=O)Nc1ccc(F)c(C(=O)c2c[nH]c3ncc(-c4ccc(Cl)cc4)cc23)c1F + Cc1nc(NC(=O)N2CCCC2C(N)=O)sc1-c1ccnc(C(C)(C)C(F)(F)F)c1 | 117 |

Challenge: Quick check: viability, T/C of CNC(=O)c1ccc(N2C(=S)N(c3ccc(C#N)c(C(F)(F)F)c3)C(=O)C2(C)C)cc1F + CC(Nc1ncnc2nc[nH]c12)c1cc2cccc(Cl)c2c(=O)n1-c1ccccc1 ?
Response given: 70.5
